test system: U2OS; assay: Incucyte cell viability with U2OS; type: toxicity, cell-based; conditions: human, 6 h, 10 µM, compound concentration 10 uM, replicate number 1, timepoint 6 hours; also: unitless GR value; below 1 slowed growth and below 0 cell loss
Kindly apply the following: Yes if Growth Rate is less than 0.6, No in every other case.

Consider the following illustrative entries.
# Compound, Assigned Category
data = [
    ("CN(C)C/C=C/C(=O)Nc1ccc(C(=O)N2CCCC(Nc3ncc(Cl)c(-c4c[nH]c5ccccc45)n3)C2)cc1 (stereo unspecified)", "Yes"),
    ("CNC(=O)[C@H]1O[C@@H](n2cnc3c(NCc4cccc(I)c4)ncnc32)[C@H](O)[C@@H]1O [IB-MECA]", "No"),
]

Request: Check if Growth Rate falls below 0.6 for NC(N)=Nc1nc(CSCCC(N)=NS(N)(=O)=O)cs1 [FAMOTIDINE] .
Result: Yes

Request: I'd appreciate it if you could check whether O=C(NCCO)c1cccc(-c2cc(Nc3ccc(OC(F)(F)F)cc3)ncn2)c1 has Growth Rate smaller than 0.6.
Result: Yes

Request: Strictly below 0.6: is that where Growth Rate of C[C@@](Cc1c[nH]c2ccccc12)(NC(=O)Nc1ccc([N+](=O)[O-])cc1)C(=O)NCC1(c2ccccn2)CCCCC1 sits?
Result: Yes

Request: Criterion: Growth Rate strictly below 0.6. Is it met by CN1CCC(C(=O)c2cccc(NC(=O)c3c(F)cc(F)cc3F)n2)CC1 ?
Result: No

Request: Field: below-cutoff. Rule: recorded Growth Rate strictly less than 0.6. Subject: C[C@H](N)COC(=O)[C@@H](CCCCN)NC(=O)Cc1c(-c2ccc3ccccc3c2)[nH]c2c1ccc1ccccc12
Result: Yes

###

Answer each item with its documented Growth Rate.
tested on: HEK-293T; assay: Incucyte cell viability with HEK293T; assay type: toxicity, cell-based; conditions: human, 0 h, 10 µM, compound concentration 10 uM, replicate number 2, timepoint 0 hours; also: unitless GR value; below 1 slowed growth and below 0 cell loss
Numbers only.

// worked examples, Growth Rate included
# Molecule, Growth Rate
rows = [
    ("Cl.O=C(O)c1cc(-c2ccc(C3CCNCC3)cc2)c2ccc(-c3ccc(C(F)(F)F)cc3)cc2c1", -0.98),
    ("CCNC(=O)c1cc2c(-c3cc(C(C)(C)O)ccc3Oc3c(C)cc(F)cc3C)cn(C)c(=O)c2[nH]1 [ABBV-744]", 0.16),
    ("Cc1sc2c(c1C)C(c1ccc(Cl)cc1)=N[C@H](CC(=O)OC(C)(C)C)c1nnc(C)n1-2", 0.63),
]

Turning to the following molecule.
# molecule COc1cc2nc(N(C)CCCNC(=O)C3CCCO3)nc(N)c2cc1OC.Cl (centres undefined) [ALFUZOSIN HYDROCHLORIDE] ; its Growth Rate = 0.19

###

test system: U2OS; assay: Incucyte cell viability with U2OS; format: toxicity, cell-based; details: human, 18 h, 10 µM, compound concentration 10 uM, replicate number 1, timepoint 18 hours; also: unitless GR value; below 1 slowed growth and below 0 cell loss
Reported Property: Growth Rate

A selection of reference data follows.
# Molecule, Target Or Test System, Growth Rate
rows = [
    ("O=C(O)COc1cccc(-c2ocnc2-c2nc(-c3ccccc3)c(-c3ccccc3)o2)c1", "U2OS", 0.88),
    ("C[C@H]1[C@H](OC(=O)CCC(=O)O)O[C@@H]2O[C@@]3(C)CC[C@H]4[C@H](C)CC[C@@H]1[C@@]24OO3 [ARTESUNATE]", "U2OS", 0.86),
    ("CC1=C(C)C(=O)C(C(C)(C)CC(=O)N(CCCCSC[C@H]2O[C@@H](n3cnc4c(N)ncnc43)[C@@H]3OC(C)(C)O[C@@H]32)Cc2cccc(-c3ccc(Cl)cc3)c2)=C(C)C1=O", "U2OS", 0.49),
    ("C[C@H](N)COC(=O)[C@@H](CCCCN)NC(=O)Cc1c(-c2ccc3ccccc3c2)[nH]c2c1ccc1ccccc12", "U2OS", 0.73),
    ("O=C(Nc1cc(-c2cn[nH]c2)ccc1N1CCOCC1)c1ccc(-c2ccc3ncccc3c2)o1", "U2OS", 0.57),
    ("CC(COc1ccccc1)N(CCCl)Cc1ccccc1.Cl (configuration not stated) [PHENOXYBENZAMINE HYDROCHLORIDE]", "U2OS", 0.94),
]

Next item in the queue.
GET /values?item= Cc1sc2c(c1C)C(c1ccc(Cl)cc1)=N[C@H](CC(=O)OC(C)(C)C)c1nnc(C)n1-2 &system= U2OS returns Growth Rate: 0.97
